- System: Trypanosoma brucei 6-phosphofructokinase (PFK)
- protocol-summary: Confirmatory Assay to Find Inhibitors of T. brucei phosphofructokinase: High F6P
- conditions: Kinase-Glo luminescence; series mostly up to 57.5 µM
- Method: Various species of the protozoan family Trypanosomatidae are responsible for a range of serious human diseases in tropical and subtropical areas of the world. […] Substrate buffer was dispensed into white, solid 1536-well plates at 3 uL/well in 0.1M triethanolamine (TEA) buffer, pH 8.0, containing final concentrations of 5 mM MgCl2 and 0.01% Tween20. […] The plates were measured on a ViewLux plate reader for luminescent signal using a clear filter with a one second exposure. […]
Records with an inconclusive call do not appear. Active and inactive are the calls of the source. Calls follow the shape of the dose curve; as a rule, active = well fitted inhibition curve with a large enough effect; inconclusive = small, poorly fitted or top-dose-only effect; inactive = flat fitted curve, though single readings scatter.

test-smiles | Potency
Cc1cc(NS(=O)(=O)c2ccc(NC(=O)Cc3ccc(Cl)c(Cl)c3)cc2)on1 | 3.26 µM (active)
O=C(Cc1ccc(Cl)c(Cl)c1)Nc1ccc(S(=O)(=O)Nc2ccc(C(=O)O)cc2)cc1 | 4.11 µM (active)
Cc1cc(NS(=O)(=O)c2ccc(N(C)C(=O)Cc3ccc(Cl)c(Cl)c3)cc2)no1 | 10.3 µM (active)
COc1ccc(CC(=O)Nc2ccc(S(=O)(=O)Nc3cc(C)on3)cc2)cc1C | inactive
Cc1cc(NS(=O)(=O)c2ccc(NC(=O)c3ccc(Cl)c(Cl)c3)cc2)no1 | inactive
